Reference for the values: patent EP1910527B1

tested on: M-1-P-producing enzyme; assay: Maltose transfer reaction without phosphate, HPLC analysis of products; type: biochemical, Corynebacterium glutamicum JCM1321; details: 2.0% substrate, 0.16 U/mL enzyme, one hour at 37°C
I'd appreciate it if you could supply Product (Peak area x 10^6): DP=4 values for the items below.

Inquiry: Can you look up the measured Product (Peak area x 10^6): DP=4 of OC[C@H]1O[C@H](O[C@H]2[C@H](O)[C@@H](O)[C@@H](O[C@H]3[C@H](O)[C@@H](O)C(O)O[C@@H]3CO)O[C@@H]2CO)[C@H](O)[C@@H](O)[C@@H]1O (stereo partly drawn) [Maltotriose] for me?
Reply text: 0.12 x 10^6

Inquiry: Requested field: Product (Peak area x 10^6): DP=4. Item: OC[C@H]1OC(O)[C@H](O)[C@@H](O)[C@@H]1O (stereo partly drawn) [Glucose]
Reply text: 0.00 x 10^6

Inquiry: # query: Product (Peak area x 10^6): DP=4 of entry OC[C@H]1O[C@H](O[C@H]2[C@H](O)[C@@H](O)[C@@H](O[C@H]3[C@H](O)[C@@H](O)[C@@H](O[C@H]4[C@H](O)[C@@H](O)[C@@H](O[C@H]5[C@H](O)[C@@H](O)C(O)O[C@@H]5CO)O[C@@H]4CO)O[C@@H]3CO)O[C@@H]2CO)[C@H](O)[C@@H](O)[C@@H]1O (stereo partly drawn) [Maltopentaose]
Reply text: 0.58 x 10^6
